System: P-MEK/Total MEK
Assay: Western blot MEK1 phosphorylation, MOLM-14
Type: cell-based
Conditions: Homo sapiens, MOLM-14, 2 h, read-out: IC50 P-MEK/Total MEK, MOLM-14 cells; 2 h
REPORTED_ENDPOINT: IC50

- COMPOUND: "CC(C)(C)c1nc(-c2cccc(NS(=O)(=O)c3c(F)cccc3F)c2F)c(-c2ccnc(Nc3ccccc3)n2)s1 [Compound 1]"
  REPORTED_ENDPOINT: "IC50"
  READING: "> 1000 nM"

====

System: P-MEK/Total MEK
Assay: Western blot MEK1 phosphorylation, K-562
Format: cell-based
Settings: Homo sapiens, K562, 2 h, read-out: IC50 P-MEK/Total MEK
REPORTED_ENDPOINT: IC50

- SMI: "CNC(=O)Cc1nc(-c2cccc(NS(=O)(=O)c3c(F)cccc3F)c2F)c(-c2ccnc(Nc3ccccc3)n2)s1"
  ASSAYED_TARGET: "P-MEK/Total MEK"
  READING: "> 1000 nM"
- SMI: "CC(C)(C)c1nc(-c2cccc(NS(=O)(=O)c3c(F)cccc3F)c2F)c(-c2ccnc(Nc3ccccc3)n2)s1"
  ASSAYED_TARGET: "P-MEK/Total MEK"
  READING: "> 1000 nM"

====

Biological target: B-Raf(h) (Homo sapiens)
Sequence (P15056 whole entry): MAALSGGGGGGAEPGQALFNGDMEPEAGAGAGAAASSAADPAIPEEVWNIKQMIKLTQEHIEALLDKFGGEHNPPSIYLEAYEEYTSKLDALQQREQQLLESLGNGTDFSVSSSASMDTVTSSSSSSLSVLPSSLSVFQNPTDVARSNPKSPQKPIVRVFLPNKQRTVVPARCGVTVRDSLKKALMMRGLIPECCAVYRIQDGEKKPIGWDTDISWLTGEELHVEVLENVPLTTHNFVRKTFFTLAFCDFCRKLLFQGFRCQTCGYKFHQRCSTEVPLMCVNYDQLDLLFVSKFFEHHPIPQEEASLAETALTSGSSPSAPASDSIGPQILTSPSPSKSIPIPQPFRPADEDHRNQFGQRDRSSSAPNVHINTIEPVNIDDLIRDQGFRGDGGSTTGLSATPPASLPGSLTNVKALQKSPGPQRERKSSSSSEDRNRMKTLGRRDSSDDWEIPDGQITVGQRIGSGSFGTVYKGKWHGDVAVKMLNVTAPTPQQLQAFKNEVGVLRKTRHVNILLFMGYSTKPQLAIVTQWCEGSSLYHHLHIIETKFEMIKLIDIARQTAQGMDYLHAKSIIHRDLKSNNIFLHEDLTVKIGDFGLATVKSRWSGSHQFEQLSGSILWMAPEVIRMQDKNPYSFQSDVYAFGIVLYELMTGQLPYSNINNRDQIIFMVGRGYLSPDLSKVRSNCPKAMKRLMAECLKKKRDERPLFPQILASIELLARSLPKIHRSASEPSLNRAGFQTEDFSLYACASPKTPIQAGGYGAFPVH
Experiment: B-Raf kinase assay (Eurofins Panlabs, radiometric)
Assay type: biochemical
Set-up: purchased Eurofins Panlabs Inc. (contract assay service)
Settings: IC50 B-Raf (nM) divided by IC50 LIMK1 (nM); Table 8
We begin with a simple list: items and their reported Selectivity ratio.
REPORTED_ENDPOINT: Selectivity ratio

- SMI: "CC(C)(C)c1nc(-c2cccc(NS(=O)(=O)c3c(F)cccc3F)c2F)c(-c2ccnc(Nc3ccccc3)n2)s1"
  REPORTED_ENDPOINT: "Selectivity ratio"
  READING: 8
- SMI: "CC(C)(C)OC(=O)Nc1cccc(-c2nc(C(C)(C)C)sc2-c2ccnc(Nc3ccccc3)n2)c1F"
  REPORTED_ENDPOINT: "Selectivity ratio"
  READING: 16
- SMI: "CC(C)(C)c1nc(-c2cccc(NC(=O)C(=O)c3c(F)cccc3F)c2F)c(-c2ccnc(Nc3ccccc3)n2)s1"
  REPORTED_ENDPOINT: "Selectivity ratio"
  READING: 11
- SMI: "CCOC(=O)Cc1nc(-c2cccc(NS(=O)(=O)c3c(F)cccc3F)c2F)c(-c2ccnc(Nc3ccccc3)n2)s1"
  REPORTED_ENDPOINT: "Selectivity ratio"
  READING: 4
- SMI: "O=S(=O)(Nc1cccc(-c2nc(CCO)sc2-c2ccnc(Nc3ccccc3)n2)c1F)c1c(F)cccc1F"
  REPORTED_ENDPOINT: "Selectivity ratio"
  READING: 9

====

Molecular target: LIMK1(h) (Homo sapiens, UniProt P53667)
Sequence (P53667 whole entry): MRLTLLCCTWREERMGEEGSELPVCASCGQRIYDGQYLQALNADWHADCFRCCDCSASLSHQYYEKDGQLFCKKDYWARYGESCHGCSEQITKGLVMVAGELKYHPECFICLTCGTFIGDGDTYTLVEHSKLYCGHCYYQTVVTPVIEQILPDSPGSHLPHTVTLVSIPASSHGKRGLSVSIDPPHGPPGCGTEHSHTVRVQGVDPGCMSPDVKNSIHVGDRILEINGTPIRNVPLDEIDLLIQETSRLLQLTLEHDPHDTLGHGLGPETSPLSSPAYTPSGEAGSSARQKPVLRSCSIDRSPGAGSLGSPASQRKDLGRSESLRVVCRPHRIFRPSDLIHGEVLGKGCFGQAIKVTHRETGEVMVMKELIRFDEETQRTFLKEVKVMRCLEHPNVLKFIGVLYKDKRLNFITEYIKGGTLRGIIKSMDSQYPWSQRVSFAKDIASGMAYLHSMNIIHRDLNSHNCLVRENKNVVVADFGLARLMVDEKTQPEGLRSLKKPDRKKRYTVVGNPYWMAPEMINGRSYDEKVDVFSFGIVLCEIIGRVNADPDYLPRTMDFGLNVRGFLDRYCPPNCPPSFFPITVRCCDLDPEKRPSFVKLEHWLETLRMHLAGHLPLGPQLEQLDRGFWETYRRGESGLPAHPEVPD
Assay: LIMK1 kinase assay (Eurofins Panlabs, radiometric)
Format: biochemical
Set-up: purchased Eurofins Panlabs Inc. (contract assay service)
Details: 15 μM ATP; Table 2; read-out: IC50 LIMK1
We begin with a simple list: items and their reported IC50.
REPORTED_ENDPOINT: IC50

- SMI: "CC(C)(C)OC(=O)Nc1cccc(-c2nc(C(C)(C)C)sc2-c2ccnc(Nc3ccccc3)n2)c1F"
  ASSAYED_TARGET: "LIMK1(h) (Homo sapiens, UniProt P53667)"
  REPORTED_ENDPOINT: "IC50"
  READING: "500 to 5000 nM"
- SMI: "CCOC(=O)Cc1nc(-c2cccc(NS(=O)(=O)c3c(F)cccc3F)c2F)c(-c2ccnc(Nc3ccccc3)n2)s1"
  ASSAYED_TARGET: "LIMK1(h) (Homo sapiens, UniProt P53667)"
  REPORTED_ENDPOINT: "IC50"
  READING: "< 10 nM"
- SMI: "CC(C)(C)c1nc(-c2cccc(NS(=O)(=O)c3c(F)cccc3F)c2F)c(-c2ncnc3[nH]ccc23)s1"
  ASSAYED_TARGET: "LIMK1(h) (Homo sapiens, UniProt P53667)"
  REPORTED_ENDPOINT: "IC50"
  READING: "500 to 5000 nM"
- SMI: "CC(C)(C)c1nc(-c2cccc(NS(=O)(=O)CCC(F)(F)F)c2F)c(-c2ccnc(Nc3ccccc3)n2)s1"
  ASSAYED_TARGET: "LIMK1(h) (Homo sapiens, UniProt P53667)"
  REPORTED_ENDPOINT: "IC50"
  READING: "100 to 500 nM"
- SMI: "CC(C)(C)c1nc(-c2cccc(NS(=O)(=O)C3CC3)c2F)c(-c2ccnc(Nc3ccccc3)n2)s1"
  ASSAYED_TARGET: "LIMK1(h) (Homo sapiens, UniProt P53667)"
  REPORTED_ENDPOINT: "IC50"
  READING: "100 to 500 nM"
- SMI: "CCCS(=O)(=O)Nc1cccc(-c2nc(C(C)(C)C)sc2-c2ccnc(Nc3ccccc3)n2)c1F"
  ASSAYED_TARGET: "LIMK1(h) (Homo sapiens, UniProt P53667)"
  REPORTED_ENDPOINT: "IC50"
  READING: "100 to 500 nM"
- SMI: "CC(C)(C)c1nc(-c2cccc(NC(=O)C(=O)c3c(F)cccc3F)c2F)c(-c2ccnc(Nc3ccccc3)n2)s1"
  ASSAYED_TARGET: "LIMK1(h) (Homo sapiens, UniProt P53667)"
  REPORTED_ENDPOINT: "IC50"
  READING: "100 to 500 nM"
- SMI: "O=S(=O)(Nc1cccc(-c2nc(CCO)sc2-c2ccnc(Nc3ccccc3)n2)c1F)c1c(F)cccc1F"
  ASSAYED_TARGET: "LIMK1(h) (Homo sapiens, UniProt P53667)"
  REPORTED_ENDPOINT: "IC50"
  READING: "< 10 nM"
